// provenance: the supplement of paper PMC10266784

B1: library; numbered along this chain (parent)
chain: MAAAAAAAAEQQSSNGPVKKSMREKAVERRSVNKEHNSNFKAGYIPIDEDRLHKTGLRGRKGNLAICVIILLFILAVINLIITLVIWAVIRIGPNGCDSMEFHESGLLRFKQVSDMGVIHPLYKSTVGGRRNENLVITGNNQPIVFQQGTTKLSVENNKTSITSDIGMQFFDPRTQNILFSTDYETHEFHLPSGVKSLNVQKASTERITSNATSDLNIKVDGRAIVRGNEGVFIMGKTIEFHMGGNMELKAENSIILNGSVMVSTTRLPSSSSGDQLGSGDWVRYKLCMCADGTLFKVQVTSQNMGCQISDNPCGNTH

# Variants of: B1
# protocol-notes: SGCB cell-surface expression functional score (HA stain, bin4 vs bin1, normalised to synonymous) (log10 ratio); higher = more cell-surface SGCB (functional)
Class satisfied: SGCB cell-surface expression functional score (log10) at least -0.1. Class not satisfied: SGCB cell-surface expression functional score (log10) below -0.1.

Use these answered entries as a reference point.
* G62R | satisfied
* S14E | satisfied
* E35Q | satisfied
* R30V | satisfied
* K61D | not satisfied
* D48W | satisfied

Input: Reported SGCB cell-surface expression functional score (log10) at or above -0.1? `M168R`
Output: not satisfied

Input: Reported SGCB cell-surface expression functional score (log10) at or above -0.1? `G278M`
Output: satisfied

Input: Reported SGCB cell-surface expression functional score (log10) at or above -0.1? `P192L`
Output: not satisfied

Input: Reported SGCB cell-surface expression functional score (log10) at or above -0.1? `A291L`
Output: not satisfied

Input: Reported SGCB cell-surface expression functional score (log10) at or above -0.1? `L75T`
Output: satisfied

Input: Reported SGCB cell-surface expression functional score (log10) at or above -0.1? `I66D`
Output: satisfied

Input: Reported SGCB cell-surface expression functional score (log10) at or above -0.1? `S13Q`
Output: satisfied
